biological target: COQ9; experiment: pooled miR-30 sensor sort-seq; sequence = guide strand; conditions: shRNA; also: reference of the scale not given here
readout-type: sensor-assay potency score (higher = more potent)
Lab note: record the figure alone, no unit after it.

Return value of sensor-assay potency score (higher = more potent) for input "TTGGTCTGGTATTAGGAACTGA" , no commentary.
-0.609

Return value of sensor-assay potency score (higher = more potent) for input "TTCATTGCATCATTAACCCGGT" , no commentary.
0.189

Return value of sensor-assay potency score (higher = more potent) for input "TCTAGCACACGTGTGAGCCGGG" , no commentary.
0.25

Return value of sensor-assay potency score (higher = more potent) for input "TTCTGCTCATCTGAAGACCTTA" , no commentary.
-0.0401

Return value of sensor-assay potency score (higher = more potent) for input "ATCATCACCAGCTCTGTTGTGT" , no commentary.
-0.201

Return value of sensor-assay potency score (higher = more potent) for input "TAGTCCTCCTCCTCCTCGCCGC" , no commentary.
-1.01

Return value of sensor-assay potency score (higher = more potent) for input "TCCTCTTCTAGCACACGTGTGA" , no commentary.
-0.72

====

# maps each entry to its sensor-assay potency score (higher = more potent)
biological target: GKN1; assay: pooled miR-30 sensor sort-seq; sequence = guide strand; conditions: shRNA
Lab note: record the figure alone, no unit after it.

# annotated cases, reported sensor-assay potency score (higher = more potent) shown
- construct-sequence: "TACACTGGTCGTGTAGCACGTT"
  obs-value: -0.157
- construct-sequence: "TTTTCTGCACAGCATATTCAGA"
  obs-value: -0.973

Return value of sensor-assay potency score (higher = more potent) for input "TTCTTTTGAAAGAGTCTGGTTG" , no commentary.
0.101

Return value of sensor-assay potency score (higher = more potent) for input "TTGTTGTCATCATTGACGTTGA" , no commentary.
-0.288

Return value of sensor-assay potency score (higher = more potent) for input "TGATATTATAGTTAGCTAGGGC" , no commentary.
-0.211

Return value of sensor-assay potency score (higher = more potent) for input "TTGTGAACTTCATCTTGTCTTC" , no commentary.
-0.21

Return value of sensor-assay potency score (higher = more potent) for input "TTTGTGCACAATGCATGTCTTC" , no commentary.
-0.893

====

target: ZNFX1; test: pooled miR-30 sensor sort-seq; sequence = guide strand; details: shRNA
We use -0.8 as the dividing line for sensor-assay potency score (higher = more potent): on or above the line is condition met, below is condition not met.

# example entries with known answers
- construct-sequence: "TTCTCTGCTATCTTGTAGCGGG"
  group-label: "condition met"
- construct-sequence: "TTTGTCCACAACATGGACCCTG"
  group-label: "condition met"
- construct-sequence: "TAACACACAACCAAGATGGGGA"
  group-label: "condition met"
- construct-sequence: "TTGTCCACAACATGGACCCTGA"
  group-label: "condition not met"
- construct-sequence: "TTGAATAATAGCCAGTTCCCTT"
  group-label: "condition not met"
- construct-sequence: "TACAACTGTAGCCAGAGCCTAT"
  group-label: "condition not met"

Could you now consider this next sequence?
Is it the case that "TTTATTATGAGAGTTAGTCTGC" has sensor-assay potency score (higher = more potent) reaching or exceeding -0.8?
condition met
